Target: E. coli DNA gyrase (Escherichia coli)
Construct: made in house; host or cells: E. coli BL21 (DE3)
Assay: Test for evaluating the activity of inhibiting E. coli DNA gyrase enzyme (Method 2, supercoiling, recombinant gyrA/gyrB complex)
Format: biochemical
Conditions: Method 2; read-out: E. Coli Gyrase supercoiling IC50
metric name: IC50
Note: a bare number is incomplete; add the unit.

entry_smiles=CNc1cc(F)cc2cc(C(=O)Nc3ccc(C(=O)NCCN4CCOCC4)cc3C)c(=O)[nH]c12 tested_target="E. coli DNA gyrase (Escherichia coli)" metric_name=IC50 assay_value="34.4 nM"

Hey, can you go through the list below and give me IC50 for every item?
1. CCCCCN(CCCCC)Cc1cc(C(=O)O)ccc1NC(=O)c1cc2cncc(NC)c2[nH]c1=O
2. CNc1cccc2cc(C(=O)Nc3cnc(NCCCN(CCO)CCO)nc3)c(=O)[nH]c12
3. CNc1cc(F)cc2c(O)c(C(=O)Nc3ccc(C(=O)OC)cc3CN3CCCCC3)c(=O)[nH]c12

**Result**
4.13 nM
149 nM
1230 nM

----------
Target: E. coli DNA gyrase (Escherichia coli, UniProt P0AES6)
Construct: made in house; host or cells: E. coli BL21 (DE3)
Experiment: Test for evaluating the activity of inhibiting E. coli DNA gyrase enzyme (Method 1, supercoiling, Inspiralis enzyme)
Type: biochemical
Settings: Method 1; read-out: E. Coli Gyrase supercoiling IC50
pIC50: −log10 of the molar value. Counter-ions that a name gives are not always drawn.
Decision: pIC50 >= 7 yields Satisfied, all other cases yield Not satisfied.

Sample answers from the record:
compound=CNc1cc(F)cc2cc(C(=O)Nc3ccc(C(=O)NCCN4CCOCC4)cc3CN(C)C3CCCCC3)c(=O)[nH]c12 class_label=Satisfied
compound=CNc1cc(F)cc2cc(C(=O)Nc3cccnc3)c(=O)[nH]c12 class_label=Satisfied
compound=CNc1nccc2cc(C(=O)Nc3ccc(C(=O)O)cc3)c(=O)[nH]c12 class_label="Not satisfied"
compound="CNc1cccc2cc(C(=O)N[C@@H](Cc3c[nH]cn3)C(=O)O)c(=O)[nH]c12 [Example 13, trifluoroacetate]" class_label="Not satisfied"
compound=CNc1cc(F)cc2cc(C(=O)NCCc3cccc(C(=O)O)c3)c(=O)[nH]c12 class_label=Satisfied

**Query** Check if pIC50 >= 7 (inclusive). Item: CNc1cccc2cc(C(=O)Nc3cnc(NC(=O)OC(C)(C)C)s3)c(=O)[nH]c12
**Result** Not satisfied

**Query** Check if pIC50 >= 7 (inclusive). Item: CNc1cccc2cc(C(=O)OCc3ccncc3N)c(=O)[nH]c12
**Result** Not satisfied

----------
List of MIC tested on E. Coli ATCC 25922.

Please review the following examples before continuing.
compound="CCc1cccc2cc(C(=O)Nc3ccc(C(=O)O)cc3)c(=O)[nH]c12 [Example 161]" tested_target="E. Coli ATCC 25922" assay_value="> 32 µg/mL"
compound="CNc1cc(F)cc2cc(C(=O)Nc3ccc(C(=O)O)cc3CN(C)C3CC3)c(=O)[nH]c12 [Example 97]" tested_target="E. Coli ATCC 25922" assay_value="> 8 µg/mL"
compound="CNc1cc(F)cc2cc(C(=O)Nc3ccc(C(=O)N(C)CCN4CCOCC4)cc3)c(=O)[nH]c12 [Example 67]" tested_target="E. Coli ATCC 25922" assay_value="> 16 µg/mL"
compound="CNc1cc(F)cc2cc(C(=O)Nc3ccc(C(O)C(N)=O)cc3)c(=O)[nH]c12 (centres unmarked) [Example 158]" tested_target="E. Coli ATCC 25922" assay_value="> 16 µg/mL"
compound="CNc1cc(F)cc2cc(CNc3ccc(C(=O)O)cc3)c(=O)[nH]c12 [Example 163]" tested_target="E. Coli ATCC 25922" assay_value="> 32 µg/mL"
compound="CNc1cc(F)cc2c(NCCN3CCOCC3)c(C(=O)Nc3ccc(C(=O)O)cc3)c(=O)[nH]c12.O=CO [Example 143]" tested_target="E. Coli ATCC 25922" assay_value="> 64 µg/mL"
compound="CNc1cc(F)cc2c(O)c(C(=O)Nc3ccc(C(=O)O)cc3CN3CCOCC3)c(=O)[nH]c12 [Example 155]" tested_target="E. Coli ATCC 25922" assay_value="> 32 µg/mL"

Next up:
**Query** What value of MIC on E. Coli ATCC 25922 does CNc1cccc2cc(C(=O)NCc3csc(N)n3)c(=O)[nH]c12.Cl [Example 31] have?
**Result** > 16 µg/mL

----------
List of MIC tested on E. Coli ATCC 25922.

entry_smiles=CNc1cccc2cc(C(=O)Nc3cnc(NC(=O)OC(C)(C)C)s3)c(=O)[nH]c12 assay_value="> 32 µg/mL"
entry_smiles=CNc1cc(F)cc2c(NCCN)c(C(=O)Nc3ccc(C(=O)O)cc3)c(=O)[nH]c12.O=CO assay_value="> 16 µg/mL"
entry_smiles=CNc1cccc2cc(C(=O)NCCc3cccc(C(=O)O)c3)c(=O)[nH]c12 assay_value="> 64 µg/mL"
entry_smiles=CNc1cc(F)cc2cc(C(=O)Nc3cnc(NCCN)nc3)c(=O)[nH]c12.O=CO assay_value="> 2 µg/mL"
entry_smiles=CNc1cc(F)cc2cc(C(=O)Nc3ccc(C(=O)O)cc3CN(CCO)C3CCCCC3)c(=O)[nH]c12.Cl assay_value="8 µg/mL"

Hey, can you go through the list below and give me MIC for every item?
1. CNc1cccc2cc(C(=O)Nc3cnc(C(=O)O)nc3)c(=O)[nH]c12
2. CNc1cc(F)cc2cc(C(=O)Nc3ccc(C(=O)O)c(OCCCN)c3)c(=O)[nH]c12.O=CO
3. CNc1cccc2cc(C(=O)NCc3ccc(C(=O)O)cc3)c(=O)[nH]c12

**Result**
1. > 16 µg/mL
2. > 16 µg/mL
3. > 64 µg/mL

----------
Assign pIC50 to each entry below.
Molecular target: E. coli DNA gyrase (Escherichia coli)
Construct: made in house; host or cells: E. coli BL21 (DE3)
Experiment: Test for evaluating the activity of inhibiting E. coli DNA gyrase enzyme (Method 2, supercoiling, recombinant gyrA/gyrB complex)
Type: biochemical
Conditions: Method 2; read-out: E. Coli Gyrase supercoiling IC50
One number for each entry, as −log10 of the molar value.

Please review the following examples before continuing.
compound=CNc1cc(F)cc2cc(C(=O)Nc3ccc(C(=O)O)cc3N(C)C3CCCCC3)c(=O)[nH]c12 assay_value=6.47
compound=CNc1cc(F)cc2cc(C(=O)Nc3ccc(CO)cc3CN(C)C3CCCCC3)c(=O)[nH]c12 assay_value=8.72
compound=CNc1cccc2cc(C(=O)Nc3cccc(C(=O)O)c3)c(=O)[nH]c12 assay_value=7.28

Hey, can you go through the list below and give me pIC50 for every item?
1. CNc1cccc2cc(C(=O)Nc3cnc(NCCN4CCN(C)CC4)nc3)c(=O)[nH]c12
2. CCc1cc(C(=O)O)ccc1NC(=O)c1cc2cc(F)cc(NC)c2[nH]c1=O
3. CCOC(=O)c1ccc(NC(=O)c2c(O)c3cc(F)cc(NC)c3[nH]c2=O)cc1

**Result**
7.63
7.50
6.67

Hey, can you go through the list below and give me pIC50 for every item?
1. CNc1cccc2cc(C(=O)Nc3ccc(CC(=O)O)cc3)c(=O)[nH]c12
2. CNc1cc(F)cc2cc(C(=O)Nc3ccc(C(O)C(N)=O)cc3)c(=O)[nH]c12 (centres unmarked)

**Result**
1: 7.74; 2: 8.11

----------
Molecular target: E. coli DNA gyrase (Escherichia coli)
Construct: made in house; host or cells: E. coli BL21 (DE3)
Test: Test for evaluating the activity of inhibiting E. coli DNA gyrase enzyme (Method 2, supercoiling, recombinant gyrA/gyrB complex)
Assay type: biochemical
Experimental: The enzymatic activity of E. coli DNA gyrase was measured by a method comprising reacting DNA gyrase and its substrate, relaxed pBR322 (Inspiralis), in the presence of ATP and detecting the post-reaction supercoiled pBR322/relaxed pBR322 ratio with H19. […]
Assign IC50 to each entry below.
Answers are plain numbers, in nM.

Please review the following examples before continuing.
compound=CNc1cc(F)cc2cc(C(=O)Nc3cnccc3CN(C)C3CCCCC3)c(=O)[nH]c12 measure_unit=nM assay_value=2.16
compound=CNc1cc(F)cc2c(NCC3CCNCC3)c(C(=O)Nc3ccc(C(=O)O)cc3)c(=O)[nH]c12.O=CO measure_unit=nM assay_value=1.31
compound=CNc1cc(F)cc2cc(C(=O)Nc3ccc(C(=O)O)cc3CCC3CCCCC3)c(=O)[nH]c12 measure_unit=nM assay_value=228

Next up:
**Query** What value of IC50 on E. coli DNA gyrase (Escherichia coli) does CNc1cc(F)cc2c(O)c(C(=O)Nc3ccc(C(=O)O)cc3CN3CCCC3)c(=O)[nH]c12.O=CO [Example 157, formate] have?
**Result** 5.61
